Measured values drawn from the supplement of paper PMC10065799 for this set.

Tested on: c-Src
assay_notes: phosphorylation enrichment, bacterial display (enrichment ratio); higher = better substrate or ligand; peptides without Tyr show the background
Label false if phosphorylation enrichment falls below 0.5; label true in every other case.

GLALRYLSDHS [VWF_Y1584] :: true

Inquiry: Could you tell me if the measured phosphorylation enrichment of EHLNRYINDTF [TTLL10_Y446_S448N] reaches 0.5 or more?
Reply text: true

Inquiry: # bool: phosphorylation enrichment of FKDGQYWIRGQ [ACSF3_Y466_R471Q] >= 0.5
Reply text: false

Inquiry: Dear colleague, could you confirm whether SYCYRYCCAAR [SUMF1_Y344_R345C] has phosphorylation enrichment at or above 0.5?
Reply text: false

Inquiry: Exam item: decide whether the reported phosphorylation enrichment for ADRARYSAFGG [RBM4_Y361] is at least 0.5.
Reply text: false

---

tested_system: EPHB1 (UniProt P54762)
Sequence (P54762 whole entry, looked up): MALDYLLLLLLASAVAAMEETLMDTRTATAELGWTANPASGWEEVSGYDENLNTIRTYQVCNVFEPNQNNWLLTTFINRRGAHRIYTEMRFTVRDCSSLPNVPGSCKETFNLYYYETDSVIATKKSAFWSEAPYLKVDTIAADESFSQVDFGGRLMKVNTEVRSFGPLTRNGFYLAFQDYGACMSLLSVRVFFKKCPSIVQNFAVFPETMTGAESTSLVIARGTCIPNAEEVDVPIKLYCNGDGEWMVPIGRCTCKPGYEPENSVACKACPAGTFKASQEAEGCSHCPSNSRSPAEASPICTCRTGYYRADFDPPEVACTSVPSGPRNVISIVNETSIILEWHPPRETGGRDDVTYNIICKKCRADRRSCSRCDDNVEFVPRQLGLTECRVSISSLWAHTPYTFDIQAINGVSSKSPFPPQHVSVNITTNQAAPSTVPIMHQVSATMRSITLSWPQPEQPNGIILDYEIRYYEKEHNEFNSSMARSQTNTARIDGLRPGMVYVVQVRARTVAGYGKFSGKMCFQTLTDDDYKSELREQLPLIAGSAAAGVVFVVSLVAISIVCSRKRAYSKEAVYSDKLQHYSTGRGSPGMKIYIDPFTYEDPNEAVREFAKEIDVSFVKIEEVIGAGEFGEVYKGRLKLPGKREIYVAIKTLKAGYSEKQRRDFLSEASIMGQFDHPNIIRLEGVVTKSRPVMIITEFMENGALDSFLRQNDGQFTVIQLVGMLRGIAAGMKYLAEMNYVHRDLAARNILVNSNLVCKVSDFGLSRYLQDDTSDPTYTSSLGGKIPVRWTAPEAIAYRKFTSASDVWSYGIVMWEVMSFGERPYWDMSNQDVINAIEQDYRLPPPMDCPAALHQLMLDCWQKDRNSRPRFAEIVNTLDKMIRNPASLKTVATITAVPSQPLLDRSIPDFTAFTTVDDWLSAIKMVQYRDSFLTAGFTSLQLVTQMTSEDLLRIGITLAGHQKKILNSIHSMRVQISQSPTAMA
assay_notes: phosphorylation enrichment, bacterial display (enrichment ratio); higher = better substrate or ligand; peptides without Tyr show the background
The reader will find reported phosphorylation enrichment values listed item by item below.
Please reply with the value in numeric form only.

Record excerpt, results attached:
YRIGPYQPSVP [MATR3_Y784_N787S] :: 0.421
QEIATYPRLLE [KRT14_Y415_R416P] :: 0.581
VKYLGYPPPEI [KDR_Y357_A352V] :: 0.468
PEEKVYLSRGD [CRACR2A_Y141_H136P] :: 1.06
YKEQGYHRLPP [RIN1_Y681] :: 0.363

Inquiry: Return phosphorylation enrichment for the following sequence: MAQDIYRASYY [ALK_Y1278_R1275Q]
Reply text: 0.576

Inquiry: Fill in phosphorylation enrichment for record EHLNRYINDTF [TTLL10_Y446_S448N]
Reply text: 0.567

Inquiry: Look up and state reported phosphorylation enrichment for EARRVYGDIIF [ALDH5A1_Y175_H180Y_YF]
Reply text: 0.4

Inquiry: Tell me measured phosphorylation enrichment for KRIETYFSKNY [PLP1_Y50_L46R] please.
Reply text: 0.427

Inquiry: Return reported phosphorylation enrichment. Input sequence: LRLSSYSTTIR [CYP7B1_Y365]
Reply text: 0.674

Inquiry: Name the recorded phosphorylation enrichment of the sequence listed here: SKNFTYIWWLN [PSG4_Y271_YF]
Reply text: 0.675

Inquiry: Provide phosphorylation enrichment value for the following sequence: DHLASYLDKVR [KRT10_Y160_R156H]
Reply text: 0.369

---

tested_system: Fes (UniProt P07332)
Sequence (P07332 whole entry, looked up): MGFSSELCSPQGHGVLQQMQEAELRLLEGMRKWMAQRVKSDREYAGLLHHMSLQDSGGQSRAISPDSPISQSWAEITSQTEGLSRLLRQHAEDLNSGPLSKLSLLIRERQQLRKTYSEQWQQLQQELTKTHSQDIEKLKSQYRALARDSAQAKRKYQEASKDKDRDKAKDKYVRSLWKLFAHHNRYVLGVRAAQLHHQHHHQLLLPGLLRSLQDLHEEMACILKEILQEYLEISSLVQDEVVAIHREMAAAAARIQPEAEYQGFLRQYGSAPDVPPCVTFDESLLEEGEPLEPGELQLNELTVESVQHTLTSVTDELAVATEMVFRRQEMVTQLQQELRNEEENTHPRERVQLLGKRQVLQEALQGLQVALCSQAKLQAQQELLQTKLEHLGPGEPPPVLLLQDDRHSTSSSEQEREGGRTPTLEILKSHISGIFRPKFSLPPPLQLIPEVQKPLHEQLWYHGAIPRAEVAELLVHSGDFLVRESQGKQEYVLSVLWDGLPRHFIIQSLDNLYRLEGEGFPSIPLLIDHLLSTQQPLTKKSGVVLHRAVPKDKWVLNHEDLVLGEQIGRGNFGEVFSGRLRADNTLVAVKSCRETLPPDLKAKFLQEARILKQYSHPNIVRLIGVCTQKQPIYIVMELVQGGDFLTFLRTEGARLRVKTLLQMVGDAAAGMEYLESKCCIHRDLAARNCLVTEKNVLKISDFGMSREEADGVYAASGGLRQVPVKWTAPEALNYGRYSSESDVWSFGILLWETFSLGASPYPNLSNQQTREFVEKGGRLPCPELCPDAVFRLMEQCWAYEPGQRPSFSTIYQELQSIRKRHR
assay_notes: phosphorylation enrichment, bacterial display (enrichment ratio); higher = better substrate or ligand; peptides without Tyr show the background
Label scheme for phosphorylation enrichment: lower than 1 is NOT MET, 1 and above is MET.

PTQLPYDHKWE [KIT_Y578] :: MET
EDEGLYTVRVP [MYOM3_Y343_M344T] :: MET
ISDEAYVMAGV [ERBB2_Y772_L768S] :: NOT MET

Inquiry: Textbook exercise: given the entry SVTCTYSLALN [TP53_Y126_P128L] , state whether its phosphorylation enrichment is greater than or equal to 1.
Reply text: MET

Inquiry: Evaluate STEPQYQPGEN [SRC_Y530] : phosphorylation enrichment at minimum 1?
Reply text: NOT MET

Inquiry: Assess whether reported phosphorylation enrichment for SSNLYYRCLTA [CNGA3_Y169_W171C] sits at 1 or higher.
Reply text: MET

Inquiry: For this sequence, is measured phosphorylation enrichment 1 or higher? QLQVFYATLDQ [MIPEP_Y579]
Reply text: MET

Inquiry: Determine whether this sequence has phosphorylation enrichment no lower than 1: KILGTYYETGS [PAX2_Y72_R71T]
Reply text: NOT MET

Inquiry: Test whether the sequence SCRENYSFSEE [LEMD3_Y258_D260Y_YF] records phosphorylation enrichment of 1 or higher.
Reply text: MET

Inquiry: Is phosphorylation enrichment at least 1? Consider MAQDIYRASYY [ALK_Y1278_R1275Q]
Reply text: NOT MET

Inquiry: Could you please find out whether YRVDCYKNFVA [FHL1_Y213_C209R] has phosphorylation enrichment that meets 1 or exceeds it?
Reply text: MET

Inquiry: phosphorylation enrichment >= 1 for HRAVEYLLMGI [RAD23A_Y197_T200M] ?
Reply text: NOT MET

---

Tested on: c-Src
assay_notes: phosphorylation enrichment, bacterial display (enrichment ratio); higher = better substrate or ligand; peptides without Tyr show the background
recorded_endpoint: phosphorylation enrichment
Reply briefly: the number, and no unit.

Inquiry: Report value only: phosphorylation enrichment, c-Src, KIPGRYYETGS [PAX2_Y72_L69P]
Reply text: 0.476

Inquiry: Provide phosphorylation enrichment, recorded with c-Src, of FPKAHYHWLVL [APTX_Y214_R213H_YF]
Reply text: 0.396

Inquiry: Jot down phosphorylation enrichment (c-Src) of HHIDFYKKTTN [FGFR1_Y654_YF] .
Reply text: 0.489

Inquiry: // output phosphorylation enrichment; input TSLAQYDSNSK [BMX_Y216] ; system c-Src
Reply text: 0.479

---

tested_system: FGFR3 (UniProt P22607)
Sequence (P22607 whole entry, looked up): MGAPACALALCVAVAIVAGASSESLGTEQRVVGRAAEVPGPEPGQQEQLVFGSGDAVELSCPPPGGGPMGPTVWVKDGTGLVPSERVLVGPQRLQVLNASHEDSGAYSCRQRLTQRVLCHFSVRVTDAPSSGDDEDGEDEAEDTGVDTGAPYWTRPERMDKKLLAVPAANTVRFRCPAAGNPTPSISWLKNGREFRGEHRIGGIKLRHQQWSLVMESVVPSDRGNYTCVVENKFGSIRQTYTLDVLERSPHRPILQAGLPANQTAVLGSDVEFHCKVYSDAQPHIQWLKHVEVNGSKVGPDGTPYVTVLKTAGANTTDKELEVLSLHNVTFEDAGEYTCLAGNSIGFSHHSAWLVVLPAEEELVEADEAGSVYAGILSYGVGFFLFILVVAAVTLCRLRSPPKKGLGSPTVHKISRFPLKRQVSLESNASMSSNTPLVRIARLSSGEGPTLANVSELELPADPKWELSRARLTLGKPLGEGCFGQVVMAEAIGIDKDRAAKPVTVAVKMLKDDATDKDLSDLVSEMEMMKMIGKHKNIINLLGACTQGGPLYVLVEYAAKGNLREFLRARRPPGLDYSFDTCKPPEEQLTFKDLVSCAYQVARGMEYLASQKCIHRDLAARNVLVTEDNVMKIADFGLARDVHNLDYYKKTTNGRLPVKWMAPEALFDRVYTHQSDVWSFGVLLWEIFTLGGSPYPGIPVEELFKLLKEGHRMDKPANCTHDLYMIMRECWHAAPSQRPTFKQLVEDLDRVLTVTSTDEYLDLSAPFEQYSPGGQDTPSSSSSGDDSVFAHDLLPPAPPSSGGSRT
assay_notes: phosphorylation enrichment, bacterial display (enrichment ratio); higher = better substrate or ligand; peptides without Tyr show the background
recorded_endpoint: phosphorylation enrichment

Consider the reported phosphorylation enrichment for these sequences:
IRTGIYHGGEP [PIK3CA_Y361_V356I] :: 0.447
NYAKMYCNPDA [KNL1_Y489] :: 0.667
IVRSPYEDLED [VHL_Y185_L184P] :: 0.704
NSNAAYEQSHF [LRIF1_Y714] :: 0.55
KDGNGYISVAE [CALM3_Y100_A103V] :: 0.473

Inquiry: Report phosphorylation enrichment, nothing else, for this sequence: SYTDPYAQPPL [KMT2D_Y2378]
Reply text: 2.16

Inquiry: In one line, give reported phosphorylation enrichment of the entry CNPRRYPVLMS [OR2T1_Y182_L180R] .
Reply text: 0.485

Inquiry: Quickly give me recorded phosphorylation enrichment for GCRSKYVGLWR [KCNQ1_Y184_G189R]
Reply text: 0.591

Inquiry: Could you please provide reported phosphorylation enrichment for TDLAYYLVCKG [ASL_Y376_R379C] ? Thanks!
Reply text: 2.33

Inquiry: Note down phosphorylation enrichment recorded for KRIETYFSKNY [PLP1_Y50_L46R]
Reply text: 0.504

Inquiry: For the sequence ITVCDYTNPCP [MYD88_Y276_T281P] , give its measured phosphorylation enrichment value.
Reply text: 0.551

Inquiry: Given the sequence RISPEYKQNEI [GJB1_Y243_L239I] , write its reported phosphorylation enrichment.
Reply text: 0.836

Inquiry: Query phosphorylation enrichment for EPSLDYMVTKI [CPS1_Y768]
Reply text: 0.797

Inquiry: Recall and state the measured phosphorylation enrichment for KKCTRYIDCDL [ASPA_Y64] .
Reply text: 0.575

Inquiry: Give the measured phosphorylation enrichment for EADRKYEEVAG [TPM3_Y163_R168G]
Reply text: 0.685

Inquiry: Look up and report measured phosphorylation enrichment for this entry: ELQDDYEDTME [SLC4A1_Y8_M11T]
Reply text: 0.972

Inquiry: Fill in phosphorylation enrichment for record ACDALYPPGPP
Reply text: 0.522

Inquiry: Please supply the value of reported phosphorylation enrichment for the item FKDGQYWIRGQ [ACSF3_Y466_R471Q]
Reply text: 0.663

Inquiry: Assign phosphorylation enrichment to the following record: CTTIHYNFMWN [TP53_Y234_C238W_YF]
Reply text: 0.981

Inquiry: Identify measured phosphorylation enrichment corresponding to TNFRLYLRSLE [MTM1_Y71_YF]
Reply text: 0.964

Inquiry: Supply reported phosphorylation enrichment belonging to this sequence: QRIFQYIRSRF [DYRK1B_Y273_Q275R_YF]
Reply text: 0.695

Inquiry: Please give measured phosphorylation enrichment of the following entry: RFQKLYLDRNL [IGFALS_Y248_L244F]
Reply text: 0.655

Inquiry: Tell me measured phosphorylation enrichment for SLFNGYVYSGV [NEIL3_Y71] please.
Reply text: 0.634

Inquiry: Item RTVPLYESLRK [DDB1_Y718_P721L] : provide phosphorylation enrichment
Reply text: 0.437

Inquiry: Hello, please tell me recorded phosphorylation enrichment for this one: RRNNSYTCFTA [SLC20A2_Y386_YF]
Reply text: 1.33

Inquiry: Could you please provide reported phosphorylation enrichment for PLCPDYQEPSR [DDR2_Y481_R478C] ? Thanks!
Reply text: 1.46

Inquiry: State its phosphorylation enrichment: NKKFHYRELPV [ERN2_Y860_H858Y_YF]
Reply text: 0.45

---

tested_system: Grb2 SH2 (UniProt P62993)
Sequence (P62993 whole entry, looked up): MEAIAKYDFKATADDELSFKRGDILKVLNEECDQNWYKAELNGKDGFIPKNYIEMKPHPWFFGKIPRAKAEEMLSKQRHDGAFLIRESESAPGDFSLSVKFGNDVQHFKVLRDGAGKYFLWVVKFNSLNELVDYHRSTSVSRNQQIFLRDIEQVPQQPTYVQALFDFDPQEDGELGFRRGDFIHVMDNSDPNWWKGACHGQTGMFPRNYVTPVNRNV
assay_notes: SH2 binding enrichment of the phosphorylated peptide, bacterial display (enrichment ratio); higher = better substrate or ligand; peptides without Tyr show the background
recorded_endpoint: SH2 binding enrichment
Respond with the number and no other words.

Would you please look over these solved cases?
GCRSKSVGLWG [KCNQ1_Y184_Y184S] :: 0.875
EREFKYDAHNF [OAT_Y50_G51D_YF] :: 0.803
KKCTRYIDCDL [ASPA_Y64] :: 0.932

Inquiry: Answer briefly: SH2 binding enrichment recorded on Grb2 SH2 (UniProt P62993) for LIDGFYRLTED [JAK2_Y373_A377E_YF]
Reply text: 0.699

Inquiry: Specify the recorded SH2 binding enrichment for LEEFQYIGELQ [MSH2_Y856_S860L] , system: Grb2 SH2 (UniProt P62993).
Reply text: 1.16

Inquiry: Name the recorded SH2 binding enrichment of KASVDYIRKLQ [MITF_Y360] , assay system Grb2 SH2 (UniProt P62993).
Reply text: 0.838

Inquiry: Look up Grb2 SH2 (UniProt P62993) data: SH2 binding enrichment of EQLLDYTRTVQ [INPP5E_Y439_R435Q] , then report it.
Reply text: 0.904

Inquiry: Print Grb2 SH2 (UniProt P62993) SH2 binding enrichment for PGPPGYCDSSH [COL12A1_Y3043_Q3048H] .
Reply text: 1.08
